- Test system: CAKI-1 renal
- assay-summary: NCI tumour cell line growth inhibition, 48 h
quantity: TGI

Below are worked cases with known answers.
- compound: "CCN(CC)CCCCC1CCN(CC(=O)N2c3ccccc3NC(=O)c3ccccc32)CC1"
  quantity: "TGI"
  observed: "> 100 µM"
- compound: "CN(C)c1cccc2[nH]c(-c3[nH]ncc3Nc3ccnc(N)n3)nc12"
  quantity: "TGI"
  observed: "1.01 µM"
- compound: "COC(=O)/C=C/c1cc(OC)c2c(c1)C(C(=O)OC)C(c1ccc(OC)c(OC)c1)O2 (stereo not drawn)"
  quantity: "TGI"
  observed: "> 100 µM"

Look up TGI for this compound: COc1ccccc1NC(=O)C(C#N)=C(SC)SC
> 100 µM

---

- Test system: MDA-MB-435
- assay-summary: NCI tumour cell line growth inhibition, 48 h
quantity: TGI

Look up TGI for this compound: Fc1ccc(C(OCCN2CCC3CCC(C2)N3CCCc2ccccc2)c2ccc(F)cc2)cc1 (stereo not given)
7.46 µM

---

- System: M14 melanoma
- assay-summary: NCI tumour cell line growth inhibition, 48 h
Entries annotated with measured TGI

Below are worked cases with known answers.
- compound: "N#C/C(=C\\c1cn(-c2ccccc2)c2ccccc12)C(=O)O"
  target-desc: "M14 melanoma"
  TGI: "> 100 µM"
- compound: "CCC(=O)N(c1ccccc1)C(C)CN1CCC(O)(c2ccccc2)CC1 (stereo unspecified)"
  target-desc: "M14 melanoma"
  TGI: "> 100 µM"
- compound: "NN/C(=N\\S(=O)(=O)c1cc(Cl)c(Oc2ccc([N+](=O)[O-])cc2Cl)c(Cl)c1)Nc1ccc(Cl)cc1"
  target-desc: "M14 melanoma"
  TGI: "31.2 µM"
- compound: "c1ccc(C2=NN(c3ccccc3)C3(S2)SC(c2ccccc2)(c2ccccc2)c2ccccc23)cc1 (stereo unspecified)"
  target-desc: "M14 melanoma"
  TGI: "> 100 µM"
- compound: "C[N+](C)(C)CC1Cc2ccccc2C1=O (stereo unspecified)"
  target-desc: "M14 melanoma"
  TGI: "> 6.99 µM"
- compound: "CCCCOC(=O)/C(CC(=O)C=C(C)C)=N\\NS(=O)(=O)c1ccc(C)cc1"
  target-desc: "M14 melanoma"
  TGI: "> 100 µM"

Look up TGI for this compound: O=C(O)CC(Cc1ccc2c(c1)OCO2)C(=O)O (stereo unspecified)
> 100 µM

Look up TGI for this compound: COc1ccc(C2CC(=O)Nc3c2c(C)nn3-c2nc3ccccc3[nH]2)cc1 (stereo unspecified)
7.12 µM

Look up TGI for this compound: CCOc1ccc(C2c3[nH]c4ccccc4c3CCN2C(=O)c2cccs2)cc1 (stereo unspecified)
> 100 µM

Look up TGI for this compound: COC(=O)c1nc(-c2ccc(Cl)c(Cl)c2)nc2ccccc12
> 100 µM

---

- Tested on: IGROV1 ovarian
- assay-summary: NCI tumour cell line growth inhibition, 48 h; in the data active = GI50 below about 0.43 µM; inactive = the rest
In this exercise, the only acceptable responses are 1 (active), 0 (inactive)

Below are worked cases with known answers.
- molecule: "FC(F)(F)c1ccc2c(c1)N(CCCN1CCN(C3CC3)CC1)c1ccccc1S2"
  target-desc: "IGROV1 ovarian"
  assigned-class: 0
- molecule: "COC(=O)Nc1ccc2ccc3c(NC(=O)OC)ccc4ccc1c2c43 (tested in a mixture with another compound)"
  target-desc: "IGROV1 ovarian"
  assigned-class: 0
- molecule: "CN(C)c1cccc2[nH]c(-c3[nH]ncc3Nc3ccnc(N)n3)nc12"
  target-desc: "IGROV1 ovarian"
  assigned-class: 1
- molecule: "Nc1cc(N)c2nc(-c3ccccc3)c(Nc3ccc(F)cc3)nc2c1"
  target-desc: "IGROV1 ovarian"
  assigned-class: 0
- molecule: "Cc1ccc(NC(=O)c2ccnc(C(F)(F)F)c2)cc1-c1cc(OCCO)nc(N2CCOCC2)c1"
  target-desc: "IGROV1 ovarian"
  assigned-class: 0
- molecule: "O=C(O)C(/C=C/c1ccco1)=N\\Nc1nc(-c2ccc(Cl)cc2)cs1"
  target-desc: "IGROV1 ovarian"
  assigned-class: 0

Which outcome was assigned to COc1nccc(-c2c(-c3ccc(F)cc3)ncn2C2CCC(O)CC2)n1 (stereo unspecified) in this test?
0

Which outcome was assigned to CC[C@@]1(O)C(=O)NCc2c1cc1n(c2=O)Cc2cc3cc4c(cc3nc2-1)OCO4 in this test?
0

Which outcome was assigned to COc1ccc(-c2ccc(/C=N/n3cn[nH]c3=S)o2)c([N+](=O)[O-])c1 in this test?
0

Which outcome was assigned to COc1cc(/C=C2\CCCC3=C2NC(N)=NC3c2cc(OC)c(OC)c(OC)c2)cc(OC)c1OC (stereo unspecified) in this test?
0

Which outcome was assigned to Clc1cc(Cl)cc(N2N=C(c3cccc(Nc4ccncc4)c3)CC2c2ccccc2)c1 (stereo unspecified) in this test?
0

---

- Test system: COLO 205 colon
- assay-summary: NCI tumour cell line growth inhibition, 48 h
Entries annotated with measured TGI

- compound: "Cc1c(-c2ccccc2)c(-c2ccc(OCCN(C)C)cc2)n2ccccc12"
  target-desc: "COLO 205 colon"
  quantity: "TGI"
  observed: "3.08 µM"

Look up TGI for this compound: CCOC(=O)CNC(=O)C(CSC(=O)N(O)c1ccc(Br)cc1)NC(=O)CCC(N)C(=O)OCC (stereo not given)
> 50 µM

Look up TGI for this compound: N#Cc1cnn2c1n[n+]([O-])c1ccc(Cl)cc12
31.7 µM

Look up TGI for this compound: O=C(O)Cc1cc(=O)oc2cc(O)c(Cl)cc12
> 100 µM

Look up TGI for this compound: CC1C(=O)N=C2C(=CN(Cc3ccccc3)c3ccccc32)C(=O)N1C (stereo not given)
> 100 µM

---

Entries annotated with measured TGI
- Test system: SF-539 CNS
- assay-summary: NCI tumour cell line growth inhibition, 48 h

Below are worked cases with known answers.
- compound: "Cc1cc2c(cn1)C(=O)OCC2"
  TGI: "> 100 µM"
- compound: "O=c1cc/c(=N\\Nc2ccccc2)c(=O)/c1=N/Nc1ccccc1"
  TGI: "> 50 µM"
- compound: "CC1C(=O)N=C2C(=CN(Cc3ccccc3)c3ccccc32)C(=O)N1C (centres undefined)"
  TGI: "> 100 µM"

// moving on: another record for TGI
Look up TGI for this compound: CN(CCO)CC(=O)CC(O)(C(F)(F)F)C(F)(F)F
> 100 µM

---

- System: OVCAR-4 ovarian
- assay-summary: NCI tumour cell line growth inhibition, 48 h
quantity: TGI

Below are worked cases with known answers.
- molecule: "CCOc1ccc(NCC(=O)N2CC(=O)Nc3ccccc32)cc1"
  observed: "> 100 µM"
- molecule: "O=S(=O)(O)C(F)(F)C(F)(F)C(F)(F)C(F)(F)F"
  observed: "> 100 µM"

// moving on: another record for TGI
Look up TGI for this molecule: Cc1ccc2c(c1)C(C1Cc3c(C)cccc3C1=O)OC2=O (stereo not drawn)
> 100 µM

---

- System: SF-268 CNS
- assay-summary: NCI tumour cell line growth inhibition, 48 h; in the data active means GI50 below about 0.43 µM; inactive means the rest
In this exercise, the only acceptable responses are 1 for active, -1 for inactive

Below are worked cases with known answers.
- molecule: "CCCCCC(=O)N1c2ccccc2NC2=C(C(=O)CC(c3ccc(OC)c(OC)c3)C2)C1c1ccc(C(F)(F)F)cc1 (stereo not drawn)"
  assigned-class: -1
- molecule: "COc1cc2c(cc1OCCCCCOc1cc(-c3ccc(F)cc3)nc(C)n1)N=C[C@@H]1CCCN1C2=O"
  assigned-class: -1

Query molecule follows.
Which outcome was assigned to CCN(CC)c1ccc(/C=N/NC(=O)c2ccc(Nc3ccnc(C(F)(F)F)c3)cc2)c(O)c1 in this test?
1

---

- System: SN12C renal
- assay-summary: NCI tumour cell line growth inhibition, 48 h
quantity: TGI

Below are worked cases with known answers.
- compound: "CC(C)(C)Cn1c(N)nc2ccc(-c3[nH]c(C(C)(C)C)nc3-c3ccc(F)cc3)nc21"
  target-desc: "SN12C renal"
  TGI: "21.4 µM"
- compound: "Cn1c(=O)nc2n(CCO)c(-c3ccccc3)c(-c3ccccc3)nc-2c1=O"
  target-desc: "SN12C renal"
  TGI: "> 100 µM"
- compound: "Nc1nc(-n2cccn2)nc(-n2cccn2)c1Br"
  target-desc: "SN12C renal"
  TGI: "> 100 µM"
- compound: "CC1C(=O)N=C2C(=CN(Cc3ccccc3)c3ccccc32)C(=O)N1C (stereo not drawn)"
  target-desc: "SN12C renal"
  TGI: "> 100 µM"
- compound: "CCOC(=O)/C(C#N)=C(O)/C(=C/c1ccccc1Cl)NC(=O)c1ccccc1"
  target-desc: "SN12C renal"
  TGI: "> 100 µM"
- compound: "CC(=O)OC1[C@H]2c3cc4c(cc3CN3CCC(C[C@@H]1OC(C)=O)C23)OCO4 (stereo partly drawn)"
  target-desc: "SN12C renal"
  TGI: "> 75 µM"
- compound: "CC(C)=CC(=O)Cc1nc2ccccc2[nH]c1=O"
  target-desc: "SN12C renal"
  TGI: "> 100 µM"
- compound: "CSC1=N/C(=C\\c2cccs2)C(=O)N1CN1CCCCC1"
  target-desc: "SN12C renal"
  TGI: "> 100 µM"

Look up TGI for this compound: CC(=O)Nc1c(C)cc(OCC(=O)O)cc1C
> 100 µM

Look up TGI for this compound: CCC(=O)N(c1ccccc1)C(C)CN1CCC(O)(c2ccccc2)CC1 (stereo not drawn)
> 100 µM

Look up TGI for this compound: COc1ccc(CSCc2cc(OC)c(OC)c(OC)c2)cc1
> 100 µM

Look up TGI for this compound: CC(=NNC(=S)Nc1ccccc1C)c1cccc(C(C)=NNC(=S)Nc2ccccc2C)n1
> 100 µM

Look up TGI for this compound: CN1CC=C(OP(=O)(NCc2ccccc2)N(CCCl)CCCl)CC1 (stereo not drawn)
> 100 µM

Look up TGI for this compound: C=CCOc1cc2c(cc1C(C)c1ccc(OC)cc1)OCO2 (stereo not drawn)
> 100 µM

Look up TGI for this compound: C[N+](C)(C)CC1Cc2ccccc2C1=O (stereo not drawn)
> 10 µM

Look up TGI for this compound: C/C(C=O)=N\Nc1cc(C)c2ccccc2n1
33 µM

Look up TGI for this compound: CC(=O)Nc1ccc(-c2nnc(SCC(=O)Nc3ccccc3Cl)o2)cc1
> 100 µM

Look up TGI for this compound: COc1ccccc1NC(=O)CC(=O)n1nc(C)c(N=Nc2ccccc2F)c1C
> 100 µM
